target: UniProtKB Q06124
Sequence (Q06124 whole entry): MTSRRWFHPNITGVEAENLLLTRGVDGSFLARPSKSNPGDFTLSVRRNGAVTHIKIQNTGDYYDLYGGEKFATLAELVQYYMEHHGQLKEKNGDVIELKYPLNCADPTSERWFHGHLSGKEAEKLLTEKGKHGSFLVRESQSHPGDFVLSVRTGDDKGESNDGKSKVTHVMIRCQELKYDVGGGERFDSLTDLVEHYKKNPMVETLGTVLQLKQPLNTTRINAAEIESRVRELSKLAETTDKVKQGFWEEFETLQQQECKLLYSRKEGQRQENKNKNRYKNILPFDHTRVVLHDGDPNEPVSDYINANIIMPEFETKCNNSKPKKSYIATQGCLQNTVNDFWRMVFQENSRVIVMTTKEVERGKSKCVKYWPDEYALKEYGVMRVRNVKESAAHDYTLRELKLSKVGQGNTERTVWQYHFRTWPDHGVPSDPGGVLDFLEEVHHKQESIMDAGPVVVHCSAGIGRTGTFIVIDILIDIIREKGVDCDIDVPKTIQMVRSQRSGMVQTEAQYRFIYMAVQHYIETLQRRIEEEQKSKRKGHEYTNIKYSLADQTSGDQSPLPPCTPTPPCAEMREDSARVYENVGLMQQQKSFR
pIC50: −log10 of the molar value.
observed_property: pIC50

Let me check: COc1c(C=O)c2c(c3c1CC(C)(C)C3)C(=O)OC(O)C2 (stereo unspecified) , system UniProtKB Q06124, measured pIC50 is < 4.00

----------
target: Tyrosine-protein phosphatase non-receptor type 2 (Homo sapiens, UniProt P17706)
Sequence (P17706 whole entry): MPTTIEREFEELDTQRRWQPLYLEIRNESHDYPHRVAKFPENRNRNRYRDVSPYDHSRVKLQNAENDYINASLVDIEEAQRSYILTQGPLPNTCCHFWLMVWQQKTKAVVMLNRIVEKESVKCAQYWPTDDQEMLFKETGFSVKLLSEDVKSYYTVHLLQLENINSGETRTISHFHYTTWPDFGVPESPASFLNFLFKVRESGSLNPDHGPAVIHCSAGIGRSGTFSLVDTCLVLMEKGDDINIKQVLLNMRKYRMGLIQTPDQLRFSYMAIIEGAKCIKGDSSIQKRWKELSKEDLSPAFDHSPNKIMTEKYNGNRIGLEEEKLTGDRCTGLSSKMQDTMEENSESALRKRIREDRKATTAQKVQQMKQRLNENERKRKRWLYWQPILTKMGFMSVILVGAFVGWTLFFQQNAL
observed_property: IC50

Let me check: CC1(C)Cc2c(O)c(C=O)c3c(c2C1)C(=O)OC(O)C3 (stereo unspecified) , system Tyrosine-protein phosphatase non-receptor type 2 (Homo sapiens, UniProt P17706), measured IC50 is > 100 µM

----------
target: UniProt P23469
Sequence (P23469 whole entry): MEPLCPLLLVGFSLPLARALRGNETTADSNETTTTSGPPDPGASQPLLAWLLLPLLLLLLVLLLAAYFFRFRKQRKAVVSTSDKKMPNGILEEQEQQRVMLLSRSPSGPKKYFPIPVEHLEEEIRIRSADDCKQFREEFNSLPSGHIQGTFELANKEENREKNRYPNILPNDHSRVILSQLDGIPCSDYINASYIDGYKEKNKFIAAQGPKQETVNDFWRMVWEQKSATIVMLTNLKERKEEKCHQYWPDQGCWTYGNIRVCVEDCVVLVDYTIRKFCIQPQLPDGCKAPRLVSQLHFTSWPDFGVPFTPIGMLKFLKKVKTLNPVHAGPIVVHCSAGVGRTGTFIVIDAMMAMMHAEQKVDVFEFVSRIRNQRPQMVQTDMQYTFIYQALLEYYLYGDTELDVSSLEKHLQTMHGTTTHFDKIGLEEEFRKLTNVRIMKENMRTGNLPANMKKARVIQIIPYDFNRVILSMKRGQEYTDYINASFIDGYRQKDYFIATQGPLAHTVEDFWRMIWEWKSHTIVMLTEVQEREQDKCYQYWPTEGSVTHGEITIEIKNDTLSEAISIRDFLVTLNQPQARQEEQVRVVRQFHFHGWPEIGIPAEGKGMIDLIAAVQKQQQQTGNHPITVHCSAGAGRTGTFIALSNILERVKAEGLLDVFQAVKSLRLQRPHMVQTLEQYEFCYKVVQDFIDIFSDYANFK
pIC50: −log10 of the molar value.
observed_property: pIC50

Let me check: COc1c(C=O)c2c(c3c1CC(C)(C)C3)C(=O)OC(O)C2 (stereo unspecified) , system UniProt P23469, measured pIC50 is < 4.00

----------
target: Receptor-type tyrosine-protein phosphatase C (Homo sapiens)
Sequence (P08575 whole entry): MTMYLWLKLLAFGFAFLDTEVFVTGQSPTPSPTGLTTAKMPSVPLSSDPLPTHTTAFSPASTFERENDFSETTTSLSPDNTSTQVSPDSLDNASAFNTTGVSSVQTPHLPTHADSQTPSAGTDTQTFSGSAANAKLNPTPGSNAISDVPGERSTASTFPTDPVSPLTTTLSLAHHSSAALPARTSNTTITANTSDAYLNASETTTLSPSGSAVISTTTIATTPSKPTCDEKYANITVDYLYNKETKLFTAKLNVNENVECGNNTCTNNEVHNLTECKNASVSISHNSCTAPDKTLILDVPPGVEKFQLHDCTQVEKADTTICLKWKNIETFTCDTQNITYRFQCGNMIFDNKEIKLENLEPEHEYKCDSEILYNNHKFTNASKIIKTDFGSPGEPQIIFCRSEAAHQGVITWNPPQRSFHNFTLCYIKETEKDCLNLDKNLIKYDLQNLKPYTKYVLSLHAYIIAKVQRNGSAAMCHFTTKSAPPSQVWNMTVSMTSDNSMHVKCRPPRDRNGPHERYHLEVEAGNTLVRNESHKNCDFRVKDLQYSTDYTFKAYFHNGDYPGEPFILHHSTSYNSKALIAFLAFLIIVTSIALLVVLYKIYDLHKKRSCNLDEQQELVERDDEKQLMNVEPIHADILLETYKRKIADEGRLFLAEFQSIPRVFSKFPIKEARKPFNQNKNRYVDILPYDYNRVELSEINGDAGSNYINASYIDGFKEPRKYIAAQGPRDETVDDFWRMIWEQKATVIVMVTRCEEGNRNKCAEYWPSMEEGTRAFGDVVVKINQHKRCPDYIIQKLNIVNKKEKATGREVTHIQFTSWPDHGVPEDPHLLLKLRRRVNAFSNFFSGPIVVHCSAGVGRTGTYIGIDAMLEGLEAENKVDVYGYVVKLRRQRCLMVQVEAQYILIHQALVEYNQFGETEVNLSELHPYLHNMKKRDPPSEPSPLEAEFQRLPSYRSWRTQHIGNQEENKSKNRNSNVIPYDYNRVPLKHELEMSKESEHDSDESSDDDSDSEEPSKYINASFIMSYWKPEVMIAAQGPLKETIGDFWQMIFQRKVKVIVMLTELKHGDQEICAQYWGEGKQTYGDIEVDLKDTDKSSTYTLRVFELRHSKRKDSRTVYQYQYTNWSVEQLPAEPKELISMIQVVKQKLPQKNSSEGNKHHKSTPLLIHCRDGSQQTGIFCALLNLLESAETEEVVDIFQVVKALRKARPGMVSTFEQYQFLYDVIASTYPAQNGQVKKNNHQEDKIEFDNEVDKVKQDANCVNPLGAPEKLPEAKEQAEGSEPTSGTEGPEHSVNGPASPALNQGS
experimental_protocol: Inhibition of CD45 (unknown origin) using DiFMUP as substrate incubated for 30 mins followed by substrate addition at pH 6.5 by standard phosphatase assay based fluorescence analysis
observed_property: IC50

Let me check: CC1(C)Cc2c(O)c(C=O)c3c(c2C1)C(=O)OC(O)C3 (stereo unspecified) [ILLUDALIC ACID] , system Receptor-type tyrosine-protein phosphatase C (Homo sapiens), measured IC50 is 10 µM

----------
target: Receptor-type tyrosine-protein phosphatase mu (Homo sapiens, UniProt P28827)
Sequence (P28827 whole entry): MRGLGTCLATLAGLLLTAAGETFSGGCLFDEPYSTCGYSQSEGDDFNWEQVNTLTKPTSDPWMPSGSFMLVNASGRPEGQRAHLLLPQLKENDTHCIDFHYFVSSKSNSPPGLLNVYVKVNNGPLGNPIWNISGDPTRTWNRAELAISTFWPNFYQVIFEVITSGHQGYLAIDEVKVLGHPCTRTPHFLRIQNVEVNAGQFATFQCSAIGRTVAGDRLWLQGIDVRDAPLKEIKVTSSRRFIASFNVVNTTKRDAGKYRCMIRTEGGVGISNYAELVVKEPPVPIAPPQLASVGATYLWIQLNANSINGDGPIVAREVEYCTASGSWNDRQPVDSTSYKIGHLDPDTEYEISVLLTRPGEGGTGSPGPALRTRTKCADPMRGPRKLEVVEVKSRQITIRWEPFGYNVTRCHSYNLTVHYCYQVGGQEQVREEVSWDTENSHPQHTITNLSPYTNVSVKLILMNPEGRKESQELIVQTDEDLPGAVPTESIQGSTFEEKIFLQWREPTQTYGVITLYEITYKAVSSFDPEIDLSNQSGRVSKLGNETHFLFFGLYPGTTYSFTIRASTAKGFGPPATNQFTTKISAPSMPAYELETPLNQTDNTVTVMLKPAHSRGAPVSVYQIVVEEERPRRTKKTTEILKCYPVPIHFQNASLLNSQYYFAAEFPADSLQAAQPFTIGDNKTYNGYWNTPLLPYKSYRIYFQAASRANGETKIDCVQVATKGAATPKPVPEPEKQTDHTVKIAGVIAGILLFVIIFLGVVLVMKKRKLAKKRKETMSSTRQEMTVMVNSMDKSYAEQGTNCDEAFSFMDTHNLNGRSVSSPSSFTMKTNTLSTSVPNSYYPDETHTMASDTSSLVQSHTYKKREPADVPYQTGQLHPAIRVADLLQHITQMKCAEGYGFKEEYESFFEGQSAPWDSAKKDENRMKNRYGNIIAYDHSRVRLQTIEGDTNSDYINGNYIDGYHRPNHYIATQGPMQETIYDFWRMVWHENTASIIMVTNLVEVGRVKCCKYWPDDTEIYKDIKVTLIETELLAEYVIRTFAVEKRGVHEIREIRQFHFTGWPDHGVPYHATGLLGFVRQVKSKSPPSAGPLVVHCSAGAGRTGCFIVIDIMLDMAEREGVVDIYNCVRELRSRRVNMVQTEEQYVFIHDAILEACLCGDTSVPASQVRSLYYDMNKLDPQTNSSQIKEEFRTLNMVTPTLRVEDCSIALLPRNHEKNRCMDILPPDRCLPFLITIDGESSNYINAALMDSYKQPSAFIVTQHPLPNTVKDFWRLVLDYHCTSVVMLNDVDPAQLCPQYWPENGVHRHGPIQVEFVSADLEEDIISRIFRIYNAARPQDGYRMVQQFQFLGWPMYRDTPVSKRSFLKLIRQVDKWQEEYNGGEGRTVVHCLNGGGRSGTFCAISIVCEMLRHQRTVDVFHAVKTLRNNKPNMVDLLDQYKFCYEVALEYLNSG
observed_property: IC50

In plain terms, COc1c(C=O)c2c(c3c1CC(C)(C)C3)C(=O)OC(O)C2 (stereo unspecified) has a documented IC50 of > 100 µM
